studySystem: rat α7 nAChRs (Rattus norvegicus, UniProt Q05941)
Construct: expressed in transfected cells; host or cells: GH4C1 cells (rat pituitary line) stably expressing α7 nAChR
Sequence (Q05941 23-502): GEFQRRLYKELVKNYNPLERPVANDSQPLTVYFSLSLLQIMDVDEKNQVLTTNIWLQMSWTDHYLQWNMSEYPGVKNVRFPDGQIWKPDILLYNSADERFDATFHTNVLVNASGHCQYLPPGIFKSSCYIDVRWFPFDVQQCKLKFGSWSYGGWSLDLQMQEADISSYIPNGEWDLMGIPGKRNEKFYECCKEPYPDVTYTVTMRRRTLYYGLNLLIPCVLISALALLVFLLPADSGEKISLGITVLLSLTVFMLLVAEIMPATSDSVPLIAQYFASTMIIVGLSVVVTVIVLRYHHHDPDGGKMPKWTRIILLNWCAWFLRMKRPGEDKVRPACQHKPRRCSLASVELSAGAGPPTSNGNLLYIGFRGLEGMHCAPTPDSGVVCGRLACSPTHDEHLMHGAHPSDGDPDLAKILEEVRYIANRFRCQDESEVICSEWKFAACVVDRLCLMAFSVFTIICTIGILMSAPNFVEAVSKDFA
assayInfo: Automated planar patch clamp (Patchliner) electrophysiology, α7 nAChR PAM activity
Type: cell-based
Parameters: key: I: Type 1 predominately affects the peak current; Type II modulators affect the peak current and also delay the desensitization of the receptor
runConditions: modulator type based on the electrophysiology trace
assayMetric: Type I or Type II

Recorded results for 6 molecules are shown here.
1) COc1ccc(Cl)cc1NC[C@@H]1[C@@H](c2ccc(NS(C)(=O)=O)cc2)C1(C)C (racemic) [Example 46] ... I
2) Cc1cc(F)c(F)cc1NC[C@@H]1[C@@H](c2ccc(S(N)(=O)=O)cc2)C1(C)C ... I
3) CC1(C)[C@@H](CNc2ccc(F)cc2OC(F)F)[C@@H]1c1ccc(S(N)(=O)=O)cc1 ... II
4) CC(C)(C)c1cc(NC[C@@H]2C(c3ccc(S(N)(=O)=O)cc3)C2(C)C)no1 (mixture of isomers) ... II
5) CC1(C)[C@H](CNc2ccnc(C(F)(F)F)c2)[C@H]1c1ccc(S(N)(=O)=O)cc1 ... II
6) CC1(C)[C@H](CNc2ccc(F)cc2C(F)(F)F)[C@H]1c1ccc(S(N)(=O)=O)cc1 ... I

# batch: return Type I or Type II for each of the 4 molecules below
1. Cc1ccc(Cl)cc1NC[C@@H]1[C@@H](c2ccc(S(N)(=O)=O)cc2)C1(C)C
2. COc1ccc(Cl)cc1NC[C@@H]1[C@@H](c2ccc(S(N)(=O)=O)cc2)C1(C)C [Example 20]
3. CC1(C)[C@H](CNc2ccc(F)cc2OC(F)F)[C@H]1c1ccc(S(N)(=O)=O)cc1
4. COc1ccc(Cl)cc1N(C)C[C@@H]1[C@@H](c2ccc(S(N)(=O)=O)cc2)C1(C)C

II
I
I
I

====

studySystem: rat α7 nAChRs (Rattus norvegicus, UniProt Q05941)
Construct: expressed in transfected cells; host or cells: GH4C1 cells (rat pituitary line) stably expressing α7 nAChR
assayInfo: Automated planar patch clamp (Patchliner) electrophysiology, α7 nAChR PAM activity
Format: cell-based
Design: key: I: Type 1 predominately affects the peak current; Type II modulators affect the peak current and also delay the desensitization of the receptor
runConditions: modulator type based on the electrophysiology trace
assayMetric: Type I or Type II

Recorded results for 6 molecules are shown here.
1. COc1ccc(Cl)cc1NC[C@H]1[C@H](c2ccc(S(N)(=O)=O)cc2)C1(C)C [Example 21] ... II
2. NS(=O)(=O)c1ccc([C@H]2C[C@@H]2CNc2ccc(C(F)(F)F)cn2)cc1 [Example 12] ... I
3. Cc1ccc(F)cc1NC[C@@H]1[C@@H](c2ccc(S(N)(=O)=O)cc2)C1(C)C [Example 29] ... I
4. CCOc1ccc(Cl)cc1NC[C@@H]1[C@@H](c2ccc(S(N)(=O)=O)cc2)C1(C)C [Example 27] ... I
5. COc1ncccc1NC[C@@H]1[C@@H](c2ccc(S(N)(=O)=O)cc2)C1(C)C [Example 42] ... II
6. CC1(C)[C@H](CNc2ccc(F)c(F)c2)[C@H]1c1ccc(S(N)(=O)=O)cc1 [Example 14] ... II

Consider the additional molecule presented here.
If you can, please state the reported Type I or Type II value of CC1(C)[C@H](CNc2cncc(F)c2)[C@H]1c1ccc(S(N)(=O)=O)cc1 [Example 10] .
II
